Listing of recorded concentration detected in a sample of milk by entry.
# System tested: BlaR-CTD receptor (Bacillus licheniformis)
# Construct: uses the BlaR-CTD receptor coupled to gold beads
# Sequence (P12287 354-601): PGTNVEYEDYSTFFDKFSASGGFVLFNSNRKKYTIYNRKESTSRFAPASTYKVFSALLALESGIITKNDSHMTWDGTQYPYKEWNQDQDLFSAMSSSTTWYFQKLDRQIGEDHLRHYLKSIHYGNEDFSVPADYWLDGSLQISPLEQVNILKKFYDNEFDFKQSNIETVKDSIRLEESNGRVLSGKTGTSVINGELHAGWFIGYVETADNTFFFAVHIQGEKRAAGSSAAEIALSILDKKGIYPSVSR
# Procedure summary: 3-minute rapid test: BlaR-CTD coupled to gold beads, membrane test device, milk
# Assay type: binding
# Settings: test carried out in 3 minutes, 47° C.; positive when 1st band less intense than 2nd band
Observation type: concentration detected in a sample of milk (ppb)

Item smiles	Reported measurement
CC1(C)S[C@@H]2[C@H](NC(=O)[C@H](N)c3ccccc3)C(=O)N2[C@H]1C(=O)O	5
CC1(C)S[C@@H]2[C@H](NC(=O)[C@H](N)c3ccc(O)cc3)C(=O)N2[C@H]1C(=O)O	5
CC(=O)OCC1=C(C(=O)O)N2C(=O)[C@@H](NC(=O)CSc3ccncc3)[C@H]2SC1	20
